Target: Tyrosine-protein kinase HCK (Homo sapiens)
Sequence (P08631 whole entry): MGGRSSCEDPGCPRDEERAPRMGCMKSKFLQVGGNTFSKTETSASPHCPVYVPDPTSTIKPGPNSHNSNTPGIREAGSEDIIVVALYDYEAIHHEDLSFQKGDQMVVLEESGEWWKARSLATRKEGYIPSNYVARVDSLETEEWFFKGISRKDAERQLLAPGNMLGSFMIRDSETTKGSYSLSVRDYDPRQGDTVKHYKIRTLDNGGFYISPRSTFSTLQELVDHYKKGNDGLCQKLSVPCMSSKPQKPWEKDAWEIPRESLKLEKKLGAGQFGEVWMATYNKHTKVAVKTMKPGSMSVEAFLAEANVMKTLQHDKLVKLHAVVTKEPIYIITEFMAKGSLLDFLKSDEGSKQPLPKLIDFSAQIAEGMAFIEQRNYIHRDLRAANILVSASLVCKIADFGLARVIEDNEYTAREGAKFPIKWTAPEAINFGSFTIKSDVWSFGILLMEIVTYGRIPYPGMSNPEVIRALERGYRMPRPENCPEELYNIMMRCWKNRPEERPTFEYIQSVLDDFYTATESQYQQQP
property name: IC50

Prompt: What IC50 appears in the records for this molecule with Tyrosine-protein kinase HCK (Homo sapiens)? Cc1ccc(NC(=O)c2cccc(C(F)(F)F)c2)cc1-c1ccc2nc(Nc3ccc(OCCN)cc3)ncc2c1
Completion: < 0.5 nM
